Task for the reader: assign each of the following molecules its reported Reversal.
- Test system: Mus musculus
- METHOD_SUMMARY: Ability to reverse electroconvulsive shock (ECS) induced amnesia in mice, at a dose of 1.25 mg/Kg administered perorally
- Type: functional
Enter your answer as a number in %; do not include the unit.

input: Could you share which Reversal value was measured for O=C(O)CCC1CCCC(=O)N1 (stereo unspecified) ?
output: 56

input: Moving on to the next molecule: O=C1CCCC2CCC(=O)N12 (stereo unspecified)
output: 18

input: Moving on to the next molecule: O=C1CCC2CCC(=O)N12
output: 27

input: Moving on to the next molecule: CC1CC2CCC(=O)N2C1=O (stereo unspecified)
output: 20

input: Moving on to the next molecule: O=C(O)CCC1CCC(=O)N1 (stereo unspecified)
output: 83

input: Moving on to the next molecule: O=C1CCC(CCC(=O)OCc2ccccc2)N1 (stereo unspecified)
output: 56
